Organism: Rattus norvegicus
protocol_notes: Inhibition of Hsp90 in rat 50B11 cells expressing human HSPA1A gene assessed as increase in Hsp70 level at 10 to 1000 nM after 16 hrs by luciferase reporter assay
Type: cell-based
Activity calls are given as the source filed them. The calls are words filed in the database; no cut-off is given here.
Answer with one of the outcomes class 1 (active), class 0 (inactive)

Some entries whose results are on file:
// return assay outcome for CC(=O)NCCc1ccc(O[C@H]2CC[C@@H](OCc3ccccc3)C2)cc1-c1cccc(F)c1
class 0

// return assay outcome for CC(=O)NCCc1ccc(OC2OC[C@@H](O)[C@H]2O)cc1-c1cccc(F)c1 (mixture of isomers)
class 0

// return assay outcome for CC(=O)NCCc1ccc(OC2OCCC2O)cc1-c1cccc(F)c1 (mixture of isomers)
class 0

// return assay outcome for CC(=O)NCCc1ccc(OC2CCCC(OCc3ccccc3)C2)cc1-c1cccc(F)c1 (mixture of isomers)
class 1

// return assay outcome for CC(=O)NCCc1ccc(OC2C[C@H](O)CO2)cc1-c1cccc(F)c1 (mixture of isomers)
class 0

// return assay outcome for CC(=O)NCCc1ccc(OC2C=CCCC2)cc1-c1cccc(F)c1 (racemic)
class 0

// return assay outcome for CC(=O)NCCc1ccc(O[C@@H]2CC[C@@H](OCc3ccccc3)C2)cc1-c1cccc(F)c1
class 0

In the following, a different molecule is considered.
// return assay outcome for CC(=O)NCCc1ccc(OC2CCC(O)CC2)cc1-c1cccc(F)c1 (mixture of isomers)
class 1

* * *

Species on record: Rattus norvegicus
protocol_notes: Inhibition of Hsp90 in rat 50B11 cells expressing human HSPA1A gene assessed as increase in Hsp70 level at 10 to 1000 nM after 16 hrs by luciferase reporter assay
Type: cell-based
Active and inactive are the calls of the source. No cut-off for these calls is given here.
value_kind: inhibition

Fill in: inhibition of CC(=O)NCCc1ccc(OC2CCCC(O)C2)cc1-c1cccc(F)c1 (mixture of isomers) is ___
Active

Fill in: inhibition of CC(=O)NCCc1ccc(OC2CCC(OCc3ccccc3)CC2)cc1-c1cccc(F)c1 (mixture of isomers) is ___
Active

Entry source: ChEMBL document CHEMBL3774380
